TEST_DETAILS: in vitro
CONDITION_DESCRIPTION: human, hela cells, % viability
QUANTITY: viability at 28.5 h, 10 µM (%)
Give bare numbers, in %.

c1ccc(CCNC2CCCc3c2[nH]c2ccc(C4CCCCC4)cc32)cc1 (centres unmarked) [CBK261602C]: 90.7
O=C(N/N=C/c1ccc([N+](=O)[O-])cc1)C(=O)Nc1cccc(Cl)c1: 95.8
c1csc(CCN2CCC3(C2)NCCc2c3[nH]c3ccccc23)c1 (centres unmarked): 111

Look at each compound and report its viability at 28.5 h, 10 µM.
1. CN(C)CCN(C)c1cc(-c2cccc(C(=O)O)c2)nc2ccnn12
2. Cc1ccc(C)c(OCCNS(=O)(=O)c2cc([N+](=O)[O-])ccc2C)c1

1: 101; 2: 87.1

====

TEST_DETAILS: in vitro
CONDITION_DESCRIPTION: human, hela cells, % viability, bulk resorufin, single well
For each entry below, report its viability at 28.5 h, 10 µM value.
Give bare numbers, in %.

N#CC1(c2ccccc2)CCN(C(=O)c2ccccc2C(=O)c2ccccc2)CC1 [CBK091396]: 107
COc1ccc(N2C(=O)/C(=C/c3cc(C)n(-c4cccc(C(=O)O)c4C)c3C)C(=O)NC2=S)cc1 [CBK264315]: 96.6
CSc1cc(C)c2c(c1)COC1(CCN(C(=O)Nc3c(C)noc3C)CC1)O2 [CBK060699]: 95.3
CCOC(=O)N1CCC2(CC1)Oc1ccc(-c3cc(OC)c(OC)c(OC)c3)cc1O2 [CBK090282]: 90.9
O=C(O)Cn1cc(C(=O)c2cccs2)c2ccccc21 [CBK287110]: 91.9

Look at each compound and report its viability at 28.5 h, 10 µM.
1. O=C1NC(=S)N(c2ccc(F)cc2)C(=O)/C1=C\NC1CCN(Cc2ccccc2)CC1 [CBK261825]
2. CCC1(c2ccccc2)C(=O)NC(=O)N(CCN2CCOCC2)C1=O (centres unmarked) [CBK288379]
3. COc1cc(C=C2C(=O)NC(=S)NC2=O)cc(Br)c1OCc1c(C)no[n+]1[O-] [CBK263475]
4. CC(=O)N1CCC2(CC1)OCc1cc(-c3ccccc3C(=O)O)ccc1O2 [CBK060975]

1. 93
2. 88
3. 98.9
4. 92.1

====

For each entry below, report its viability at 28.5 h, 10 µM value.
TEST_DETAILS: in vitro
CONDITION_DESCRIPTION: human, hela cells, % viability
One number for each entry, in %.

Look at each compound and report its viability at 28.5 h, 10 µM.
1. O=C(O)C1(Oc2ccc3ncccc3c2)CCN(C2CCCCC2)CC1 [CBK306591]
2. CN(CC(=O)Nc1cccc(Cl)c1)S(=O)(=O)c1ccc2ccccc2c1 [CBK266746]
3. Cc1cc(NC(=O)CNC(=O)c2ccccc2)no1 [CBK073427]
4. N#Cc1ccc(CNC(=O)c2ccc3nc[nH]c3c2)cc1 [CBK153332]

92.4
105
99.7
95.1

====

TEST_DETAILS: in vitro
CONDITION_DESCRIPTION: human, hela cells, % viability
For each entry below, report its viability at 28.5 h, 10 µM value.
Answers are plain numbers, in %.

Here's what some known entries look like.
COc1cccc2c(C(C(=O)O)N3CCN(c4ccc(C(F)(F)F)cn4)CC3)c[nH]c12 (stereo not drawn): 89.7
CC1=NN(c2ccccc2)C(=O)/C1=C(/C)NNC(=O)c1ccccn1: 91.7
O=C(NCc1cccnc1)c1ccccc1-n1cccc1: 92.3
CN1CCCCCC1c1nc(-c2ccccc2)nn1CCCO (stereo not drawn): 95.9
OC[C@]1(c2ccccc2)CC[C@H](N2CCCC2)CC1: 85.5
Cc1ccc(-c2cc(C(=O)O)c3cc4c(C(=O)O)cc(-c5ccc(C)o5)nc4cc3n2)o1: 87.4
c1cc(Sc2nccnc2N2CCCC2)ccn1: 92.3
O=C(CC1CCN(Cc2ccccn2)CC1)Nc1ccc(OC2CCCC2)cc1: 104
CSc1nccc(N2CCC(NCCn3c(C)cc(C)nc3=O)CC2)n1: 85.3
O=C(O)/C=C/c1cccc(/C=C/C(=O)O)c1: 89.9

Look at each compound and report its viability at 28.5 h, 10 µM.
1. O=C(CCCOc1ccc(Cl)cc1Cl)NO
2. CCn1nc(CO)c2c1CCN(CC(=O)NCc1cccs1)C2

1. 81.7
2. 92.8

Look at each compound and report its viability at 28.5 h, 10 µM.
1. CCOc1ncccc1C(=O)NCc1ccc(COCC(F)(F)F)cc1
2. C/C(=N\Nc1nc(C(=O)O)cs1)c1ccccc1
3. O=C(COc1ccc2ccccc2c1)Nc1ccc(S(=O)(=O)N2CCc3ccccc32)cc1

1. 97.8
2. 88.7
3. 91.5

====

For each entry below, report its viability at 28.5 h, 10 µM value.
TEST_DETAILS: in vitro
CONDITION_DESCRIPTION: human, hela cells, % viability
Give bare numbers, in %.

Here's what some known entries look like.
O=C(O)CCC(=O)NCCCc1ccccc1 [CBK265465]: 86.7
CCCn1c(-c2ccccc2OC(F)(F)F)n[nH]c1=O [CBK074238]: 110
COc1ccc(NC(=O)N[C@H]2C[C@H]3C(=O)N[C@H](Cc4ccccc4)C(=O)N3C2)cc1 [CBK289227]: 84.7
COc1cc(-c2nccnc2NCc2ccccn2)cc(OC)c1OC [CBK036936]: 96.8
Cc1c(C(=O)NCc2ccccn2)nnn1-c1cccc(C(F)(F)F)c1 [CBK107395]: 92.9

Look at each compound and report its viability at 28.5 h, 10 µM.
1. Oc1n[nH]c(CSCc2ccccc2Cl)n1 [CBK267427]
2. Nc1nc(=O)[nH]c2c1ncn2[C@@H]1O[C@H](CO)[C@H](O)C1O (stereo partly drawn) [CBK201282]
3. O=C(O)CCc1ccc(-c2cccs2)n1-c1ccc(C(=O)O)cc1 [CBK266016]
4. Cc1ccc(C2(CNC(=O)CCc3ccncc3)CCOCC2)cc1 [CBK281574]

1: 87.6; 2: 93.7; 3: 90.9; 4: 93.7

====

TEST_DETAILS: in vitro
CONDITION_DESCRIPTION: human, hela cells, % viability
For each entry below, report its viability at 28.5 h, 10 µM value.
Answers are plain numbers, in %.

Here's what some known entries look like.
COc1cc(OC)cc(-c2c(C)ncnc2OC)c1: 91.4
COc1ccc(-c2ccccc2NC(=O)c2cccc(CN3CCCC3=O)c2)cc1: 91.4
CN(Cc1ccccc1)Cc1ccccc1O: 92.4
CCCN1CCC(NC(=O)c2cccc(S(N)(=O)=O)c2)CC1: 90.6
O=C(O)CC(Cc1ccc(Cl)cc1)C(=O)NCc1ccccc1 (stereo not drawn): 89.4
O=C(CN1CCC(Cc2ccccc2)CC1)Nc1ccc(F)c(Cl)c1: 92.4
Cc1cc(-c2cncc(-c3ccc(O)cc3)n2)ccc1S(=O)(=O)N1CCOCC1: 92.4
COc1ccccc1C(=O)N1CCC(c2nc(C)n3ccccc23)C1 (stereo not drawn): 88.4

Shift focus to the following entry.
Any idea what viability at 28.5 h, 10 µM was measured for Cc1ccc2c(c1)nc1n2CCC1O (stereo not drawn) ? 88.1

====

TEST_DETAILS: in vitro
CONDITION_DESCRIPTION: human, hela cells, % viability
For each entry below, report its viability at 28.5 h, 10 µM value.
Numbers only, in %.

Here's what some known entries look like.
CC(=O)Nc1ccc(/C=N/NC(=O)c2nnn(-c3nonc3N)c2-c2ccccc2)cc1 [CBK262790]: 94.9
N#Cc1ccccc1Cn1cc(C(=O)C(N)=O)c2ccccc21 [CBK269862]: 93.5
COc1ccccc1CN1CC[C@H]2[C@@H](C1)[C@H](c1ccsc1)CN2C(=O)c1ccccc1 [CBK285617]: 96
O=C(C[C@@H]1O[C@H](CNS(=O)(=O)c2ccccc2)[C@@H](O)[C@H]1O)N1CCc2ccccc21 [CBK288916]: 91.2

Look at each compound and report its viability at 28.5 h, 10 µM.
1. CC(C)(C)C1CCC(OC(=O)CCC(=O)Nc2nccs2)CC1 (centres unmarked) [CBK260890]
2. CCCCOc1ccc(C=Cc2nc3sc(C(=O)O)c(C)c3c(=O)[nH]2)cc1 [CBK297524]
3. c1coc(-c2ccc(Nc3ccc4c(c3)OCCO4)nc2)c1 [CBK037765]
4. COc1ccc(-c2cncc(C3CN(Cc4cccc5ncccc45)CCO3)n2)cc1 (centres unmarked) [CBK285947]

1. 96.9
2. 86.5
3. 96.9
4. 96.7

Look at each compound and report its viability at 28.5 h, 10 µM.
1. COc1cc(-c2ccc3ccc(N)nc3n2)cc(OC)c1OC [CBK061866]
2. Cn1c(SCC(=O)Nc2ccccc2[N+](=O)[O-])nc2ccccc2c1=O [CBK265096]
3. c1ccc2c(c1)OCC(COc1ccnc(N3CCCN(CCN4CCOCC4)CC3)n1)O2 (centres unmarked) [CBK083976]

1: 90.6; 2: 106; 3: 116

The values you see were collected from paper PMC12040169.
